System: HCT-116
measurement_notes: NCI 60 cell line five dose, Colon Cancer
test_context: read-out: LC50
reported_endpoint: CC50 (µM)
Hi! Could you send only the number? It should be in µM, unit omitted.

INSERT INTO results (cpd_smiles, numeric_readout) VALUES
  ('C=C1C(=O)O[C@H]2[C@H]1CC/C(COC(=O)NCCCCNC(=O)OC/C1=C/CC[C@@]3(C)O[C@H]3[C@H]3OC(=O)C(=C)[C@@H]3CC1)=C\CC[C@@]1(C)O[C@@H]21', 6.19);

What measured CC50 goes with "C=C1C(=O)O[C@H]2[C@H]1CC/C(COC(=O)NCCCCCNC(=O)OC/C1=C/CC[C@@]3(C)O[C@H]3[C@H]3OC(=O)C(=C)[C@@H]3CC1)=C\CC[C@@]1(C)O[C@@H]21" ? 4.56

###

Tested on: COLO 205
measurement_notes: NCI 60 cell line five dose, Colon Cancer
test_context: read-out: LC50
reported_endpoint: CC50 (µM)
Hi! Could you send only the number? It should be in µM, unit omitted.

INSERT INTO assay_data (cpd_smiles, numeric_readout) VALUES
  ('C=C1C(=O)O[C@H]2[C@H]1CC/C(COC(=O)NCCCCNC(=O)OC/C1=C/CC[C@@]3(C)O[C@H]3[C@H]3OC(=O)C(=C)[C@@H]3CC1)=C\CC[C@@]1(C)O[C@@H]21', 5.79);

Field: next compound
What measured CC50 goes with "C=C1C(=O)O[C@H]2[C@H]1CC/C(COC(=O)NCCCCCNC(=O)OC/C1=C/CC[C@@]3(C)O[C@H]3[C@H]3OC(=O)C(=C)[C@@H]3CC1)=C\CC[C@@]1(C)O[C@@H]21" ? 7.97

###

Tested on: EKVX
measurement_notes: NCI 60 cell line five dose, Non-Small Cell Lung Cancer
Format: cell-based, human
test_context: read-out: LC50 (the source's name)
reported_endpoint: CC50 (µM)
Hi! Could you send only the number? It should be in µM, unit omitted.

What measured CC50 goes with C=C1C(=O)O[C@H]2[C@H]1CC/C(COC(=O)NCCCCNC(=O)OC/C1=C/CC[C@@]3(C)O[C@H]3[C@H]3OC(=O)C(=C)[C@@H]3CC1)=C\CC[C@@]1(C)O[C@@H]21 [JVM 3-54] ? 37.3

###

System: UO-31
measurement_notes: NCI 60 cell line five dose, Renal Cancer
Catalogue of compounds with associated GI50
Hi! Could you send only the number? It should be in µM, unit omitted.

INSERT INTO assay_data (compound, system_name, numeric_readout) VALUES
  ('C=C1C(=O)O[C@H]2[C@H]1CC/C(COC(=O)CCC(=O)NCCCCCCCCCNC(=O)CCC(=O)OC/C1=C/CC[C@@]3(C)O[C@H]3[C@H]3OC(=O)C(=C)[C@@H]3CC1)=C\CC[C@@]1(C)O[C@@H]21 [JVM 2-92]', 'UO-31', 3.9),
  ('C=C1C(=O)O[C@H]2[C@H]1CC/C(COC(=O)NCCCCNC(=O)OC/C1=C/CC[C@@]3(C)O[C@H]3[C@H]3OC(=O)C(=C)[C@@H]3CC1)=C\CC[C@@]1(C)O[C@@H]21 [JVM 3-54]', 'UO-31', 7.61),
  ('C=C1C(=O)O[C@H]2[C@H]1CC/C(COC(=O)CCC(=O)NCCCCCCCCNC(=O)CCC(=O)OC/C1=C/CC[C@@]3(C)O[C@H]3[C@H]3OC(=O)C(=C)[C@@H]3CC1)=C\CC[C@@]1(C)O[C@@H]21 [JVM 2-87]', 'UO-31', 10.9);

Field: next compound
What measured GI50 goes with C=C1C(=O)O[C@H]2[C@H]1CC/C(COC(=O)NCCCCCNC(=O)OC/C1=C/CC[C@@]3(C)O[C@H]3[C@H]3OC(=O)C(=C)[C@@H]3CC1)=C\CC[C@@]1(C)O[C@@H]21 [JVM 2-76] ? 8.9

###

Test system: LOX IMVI
measurement_notes: NCI 60 cell line five dose, Melanoma
test_context: read-out: LC50, molar
reported_endpoint: CC50 (nM)
Hi! Could you send only the number? It should be in nM, unit omitted.

Entry "C=C1C(=O)O[C@H]2[C@H]1CC/C(COC(=O)NCCCCCCCCNC(=O)OC/C1=C/CC[C@@]3(C)O[C@H]3[C@H]3OC(=O)C(=C)[C@@H]3CC1)=C\CC[C@@]1(C)O[C@@H]21" , system LOX IMVI: what CC50 was measured? 761

###

Tested on: NCI-H460
measurement_notes: NCI 60 cell line five dose, Non-Small Cell Lung Cancer
reported_endpoint: TGI (µM)
Hi! Could you send only the number? It should be in µM, unit omitted.

What measured TGI goes with C=C1C(=O)O[C@H]2[C@H]1CC/C(COC(=O)CCC(=O)NCCCCCCCCCNC(=O)CCC(=O)OC/C1=C/CC[C@@]3(C)O[C@H]3[C@H]3OC(=O)C(=C)[C@@H]3CC1)=C\CC[C@@]1(C)O[C@@H]21 [JVM 2-92] ? 5.17

What measured TGI goes with C=C1C(=O)O[C@H]2[C@H]1CC/C(COC(=O)NCCCCCNC(=O)OC/C1=C/CC[C@@]3(C)O[C@H]3[C@H]3OC(=O)C(=C)[C@@H]3CC1)=C\CC[C@@]1(C)O[C@@H]21 [JVM 2-76] ? 16.2

What measured TGI goes with C=C1C(=O)O[C@H]2[C@H]1CC/C(COC(=O)NCCCCNC(=O)OC/C1=C/CC[C@@]3(C)O[C@H]3[C@H]3OC(=O)C(=C)[C@@H]3CC1)=C\CC[C@@]1(C)O[C@@H]21 [JVM 3-54] ? 18

What measured TGI goes with C=C1C(=O)O[C@H]2[C@H]1CC/C(COC(=O)CCC(=O)NCCCCCCCCNC(=O)CCC(=O)OC/C1=C/CC[C@@]3(C)O[C@H]3[C@H]3OC(=O)C(=C)[C@@H]3CC1)=C\CC[C@@]1(C)O[C@@H]21 [JVM 2-87] ? 19.9

###

Test system: K-562
measurement_notes: NCI 60 cell line five dose, Leukemia
Catalogue of compounds with associated TGI
Hi! Could you send only the number? It should be in µM, unit omitted.

A selection of reference data follows.
INSERT INTO assay_data (compound, reported_endpoint, unit_string, numeric_readout) VALUES
  ('C=C1C(=O)O[C@H]2[C@H]1CC/C(COC(=O)CCC(=O)NCCCCCCCCNC(=O)CCC(=O)OC/C1=C/CC[C@@]3(C)O[C@H]3[C@H]3OC(=O)C(=C)[C@@H]3CC1)=C\CC[C@@]1(C)O[C@@H]21 [JVM 2-87]', 'TGI', 'µM', 12.9),
  ('C=C1C(=O)O[C@H]2[C@H]1CC/C(COC(=O)NCCCCNC(=O)OC/C1=C/CC[C@@]3(C)O[C@H]3[C@H]3OC(=O)C(=C)[C@@H]3CC1)=C\CC[C@@]1(C)O[C@@H]21 [JVM 3-54]', 'TGI', 'µM', 10.4),
  ('C=C1C(=O)O[C@H]2[C@H]1CC/C(COC(=O)CCC(=O)NCCCCCCCCCNC(=O)CCC(=O)OC/C1=C/CC[C@@]3(C)O[C@H]3[C@H]3OC(=O)C(=C)[C@@H]3CC1)=C\CC[C@@]1(C)O[C@@H]21 [JVM 2-92]', 'TGI', 'µM', 3.21);

Field: next compound
What measured TGI goes with C=C1C(=O)O[C@H]2[C@H]1CC/C(COC(=O)NCCCCCNC(=O)OC/C1=C/CC[C@@]3(C)O[C@H]3[C@H]3OC(=O)C(=C)[C@@H]3CC1)=C\CC[C@@]1(C)O[C@@H]21 [JVM 2-76] ? 16.1

###

Tested on: MCF7
measurement_notes: NCI 60 cell line five dose, Breast Cancer
test_context: read-out: LC50
reported_endpoint: CC50 (µM)
Hi! Could you send only the number? It should be in µM, unit omitted.

What measured CC50 goes with "C=C1C(=O)O[C@H]2[C@H]1CC/C(COC(=O)NCCCCCNC(=O)OC/C1=C/CC[C@@]3(C)O[C@H]3[C@H]3OC(=O)C(=C)[C@@H]3CC1)=C\CC[C@@]1(C)O[C@@H]21" ? 6.2

###

System: HOP-62
measurement_notes: NCI 60 cell line five dose, Non-Small Cell Lung Cancer
Assay type: cell-based, human
test_context: read-out: LC50 (the source's name)
reported_endpoint: CC50 (µM)
Hi! Could you send only the number? It should be in µM, unit omitted.

What measured CC50 goes with "C=C1C(=O)O[C@H]2[C@H]1CC/C(COC(=O)NCCCCNC(=O)OC/C1=C/CC[C@@]3(C)O[C@H]3[C@H]3OC(=O)C(=C)[C@@H]3CC1)=C\CC[C@@]1(C)O[C@@H]21" ? 46.1

###

Tested on: NCI-H23
measurement_notes: NCI 60 cell line five dose, Non-Small Cell Lung Cancer
reported_endpoint: TGI (µM)
Hi! Could you send only the number? It should be in µM, unit omitted.

A selection of reference data follows.
INSERT INTO results (cpd_smiles, system_name, numeric_readout) VALUES
  ('C=C1C(=O)O[C@H]2[C@H]1CC/C(COC(=O)NCCCCNC(=O)OC/C1=C/CC[C@@]3(C)O[C@H]3[C@H]3OC(=O)C(=C)[C@@H]3CC1)=C\CC[C@@]1(C)O[C@@H]21', 'NCI-H23', 5.54),
  ('C=C1C(=O)O[C@H]2[C@H]1CC/C(COC(=O)NCCCCCNC(=O)OC/C1=C/CC[C@@]3(C)O[C@H]3[C@H]3OC(=O)C(=C)[C@@H]3CC1)=C\CC[C@@]1(C)O[C@@H]21', 'NCI-H23', 7.71);

What measured TGI goes with "C=C1C(=O)O[C@H]2[C@H]1CC/C(COC(=O)CCC(=O)NCCCCCCCCCNC(=O)CCC(=O)OC/C1=C/CC[C@@]3(C)O[C@H]3[C@H]3OC(=O)C(=C)[C@@H]3CC1)=C\CC[C@@]1(C)O[C@@H]21" ? 5.13

What measured TGI goes with "C=C1C(=O)O[C@H]2[C@H]1CC/C(COC(=O)CCC(=O)NCCCCCCCCNC(=O)CCC(=O)OC/C1=C/CC[C@@]3(C)O[C@H]3[C@H]3OC(=O)C(=C)[C@@H]3CC1)=C\CC[C@@]1(C)O[C@@H]21" ? 8.25
